Biological target: Protein-arginine deiminase type-4 (Homo sapiens)
Experiment: protein arginine deiminase 4 enzyme blockade – biochemical, fluorescence polarization, 1536-well format, primary screen (AID 485272);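 further: 0% = PAD4 with RCA probe and DMSO and 100% = probe without PAD4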
Conditions: recombinant PAD4, RCA probe fluorescence polarization; at 6.36 µM; stronger effect = higher value
Among all 330,000 compounds or so, about 1,300 (0.39%) were called active. The sample holds actives, similar compounds and a random draw of the others, so the mix is not that of the screen.
Measured Metric: inhibition

Example entries begin here.
INSERT INTO measurements (compound, endpoint_result) VALUES
  ('N/C(=N\OC(=O)CC1CCCCC1)c1ccccc1', '-1.21% (inactive)'),
  ('COc1cc(OC)cc(C(=O)Nc2ccc(-c3nc4ccccc4o3)c(O)c2)c1', '-9.35% (inactive)');

Shifting focus to the compound that follows.
Enter reported inhibition observed with Protein-arginine deiminase type-4 (Homo sapiens) for OC1CSc2nc3ccccc3n2C1 (stereo not drawn)
-1.87% (inactive)

---

Target: Protein-arginine deiminase type-4 (Homo sapiens) (UniProt Q9UM07)
Sequence (Q9UM07 whole entry, looked up): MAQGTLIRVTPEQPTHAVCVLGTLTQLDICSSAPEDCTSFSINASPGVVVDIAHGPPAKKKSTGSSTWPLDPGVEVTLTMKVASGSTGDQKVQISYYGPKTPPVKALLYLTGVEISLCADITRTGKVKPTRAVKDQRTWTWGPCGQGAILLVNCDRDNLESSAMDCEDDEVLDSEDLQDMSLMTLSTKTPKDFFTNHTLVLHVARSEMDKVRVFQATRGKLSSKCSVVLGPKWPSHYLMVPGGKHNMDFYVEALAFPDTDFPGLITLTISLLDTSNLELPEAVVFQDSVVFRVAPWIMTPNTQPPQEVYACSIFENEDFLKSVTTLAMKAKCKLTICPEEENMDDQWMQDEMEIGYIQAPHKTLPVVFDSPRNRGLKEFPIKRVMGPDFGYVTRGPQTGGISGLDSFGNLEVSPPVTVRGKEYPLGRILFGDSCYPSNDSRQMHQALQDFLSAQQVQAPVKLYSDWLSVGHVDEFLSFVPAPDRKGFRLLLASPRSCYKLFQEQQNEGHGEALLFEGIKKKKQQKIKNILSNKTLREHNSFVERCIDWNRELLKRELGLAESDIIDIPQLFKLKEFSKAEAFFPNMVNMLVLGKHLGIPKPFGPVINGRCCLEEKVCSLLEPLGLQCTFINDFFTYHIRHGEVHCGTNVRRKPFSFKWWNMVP
Test: protein arginine deiminase 4 enzyme blockade – biochemical, fluorescence polarization, 1536-well format, primary screen (AID 485272);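 further: 0% = PAD4 with RCA probe and DMSO and 100% = probe without PAD4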
Details: recombinant PAD4, RCA probe fluorescence polarization; at 6.36 µM; stronger effect = higher value
Out of some 330,000 compounds screened, about 1,300 (0.39%) were called active. Shown is part of a subset that was picked to be rich in actives.
Entries and their inhibition values follow.
Return type: number; implicit unit %.

Example entries begin here.
INSERT INTO results (molecule, endpoint_result) VALUES
  ('COc1ccc(C(=O)Nc2ccc(C(=O)NCC3CCCO3)cc2)c(OC)c1OC (stereo not drawn)', 2.07),
  ('O=C1Nc2ccccc2C12Nc1ccccc1S2 (stereo not drawn)', 21.3),
  ('COc1ccc(S(=O)(=O)N(CC(=O)NCc2ccco2)c2ccc(F)cc2)cc1', -1.25),
  ('Cc1ccc(F)cc1NC(=O)Cc1nn(C)c(=O)c2ccccc12', -6.33),
  ('Cc1cc(C(=O)CSc2nc(N)cc(=O)[nH]2)c(C)n1CCc1ccc(Cl)cc1', 23.8),
  ('Cc1cc(C)c2c(Cn3ccnc3)cc(=O)oc2c1', -4.75),
  ('Oc1ccc(/C=N/N(Cc2ccccc2)c2ccccc2)cc1', 2.9);

Shifting focus to the molecule that follows.
Query: inhibition; subject: CCc1ccc2c(c1)C1(NN=C(c3ccccc3)S1)C(=O)N2 (stereo not drawn)
-9.11

---

Target: Protein-arginine deiminase type-4 (Homo sapiens) (UniProt Q9UM07)
Experiment: protein arginine deiminase 4 enzyme blockade – biochemical, fluorescence polarization, 1536-well format, primary screen (AID 485272);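 further: 0% = PAD4 with RCA probe and DMSO and 100% = probe without PAD4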
Conditions: recombinant PAD4, RCA probe fluorescence polarization; at 6.36 µM; stronger effect = higher value
Out of some 330,000 compounds screened, about 1,300 (0.39%) were called active. The list comes from a sample in which actives are over-represented; it also holds close analogues and randomly drawn compounds.
Measured Metric: inhibition (%)
Return type: number; implicit unit %.

INSERT INTO results (compound, endpoint_result) VALUES
  ('O=C1CCCC2=C1C(c1cccs1)n1nc(SCc3ccccc3)nc1N2 (stereo not given)', -0.55);

Enter reported inhibition observed with Protein-arginine deiminase type-4 (Homo sapiens) (UniProt Q9UM07) for CC(=O)c1cccc(NC(=O)N2CCCC2C(=O)NCCC(C)C)c1 (stereo not given)
-0.58

Then this compound: `CCOc1ccc(S(=O)(=O)N2CCC(C(=O)NCc3ccccn3)CC2)cc1Cl`
-2.62

Then this compound: `COc1cc(C(=O)N2C(=O)c3cccc(N)c3C2=O)cc(OC)c1OC`
-3.66

Then this compound: `CN(C)c1ccc(N/C=C/C(=O)C(F)(F)F)cc1`
38.9

Then this compound: `COc1ccc(-c2cc(C(=O)NCCCN3CCOCC3)no2)cc1`
-1.77

Then this compound: `COc1ccccc1OCCCCCCN1CCN(C)CC1`
-0.69

Then this compound: `CN1C(=O)c2cccc3c(N)ccc(c23)C1=O`
24

Then this compound: `O=C(NCCCO)c1cc2c([nH]c3ccccc32)c(-c2ccc(F)cc2)n1`
35.7

Then this compound: O=C(NCC1CCCO1)c1cc2c([nH]c3ccccc32)c(-c2ccc(F)cc2)n1 (stereo not given)
66.5

---

Target: Protein-arginine deiminase type-4 (Homo sapiens)
Assay: protein arginine deiminase 4 enzyme blockade – biochemical, fluorescence polarization, 1536-well format, primary screen (AID 485272);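 further: 0% = PAD4 with RCA probe and DMSO and 100% = probe without PAD4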
Settings: recombinant PAD4, RCA probe fluorescence polarization; at 6.36 µM; stronger effect = higher value
Among all 330,000 compounds or so, about 1,300 (0.39%) were called active. This excerpt belongs to a sample that is enriched for actives.
Entries and their inhibition values follow.
Return type: number; implicit unit %.

Example entries begin here.
INSERT INTO measurements (molecule, measured_metric, endpoint_result) VALUES
  ('CCOc1ccc(N2CC(C(=O)NCCN3C(=O)S/C(=C\c4cccnc4)C3=O)CC2=O)cc1 (stereo not drawn)', 'inhibition', -4.16),
  ('COCCN1C=C2C(=O)C(C)(OC(=O)C3CCCC3)C(=O)C=C2C=C1c1ccsc1 (stereo not drawn)', 'inhibition', 17.8),
  ('Cc1ccc(-n2[nH]c(C)c(/C=N/NC(=O)c3cccc([N+](=O)[O-])c3)c2=O)cc1C', 'inhibition', -0.65),
  ('COc1ccc(C(=O)Nc2nc(-c3ccc(S(=O)(=O)N4CCOCC4)cc3)cs2)cc1', 'inhibition', 17.5);

Query: inhibition; subject: CCOc1cc2c(cc1OCC)C(C(=O)O)C(c1ccc(OC)c(O)c1)N(C)C2=O (stereo not drawn)
-1.73

Then this molecule: C=CCN1C2CCCC1CC(NC(=S)Nc1cccc(OC)c1)C2 (stereo not drawn)
3.98

---

Entries and their inhibition values follow.
Biological target: Protein-arginine deiminase type-4 (Homo sapiens)
Assay: protein arginine deiminase 4 enzyme blockade – biochemical, fluorescence polarization, 1536-well format, primary screen (AID 485272);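 further: 0% = PAD4 with RCA probe and DMSO and 100% = probe without PAD4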
Details: recombinant PAD4, RCA probe fluorescence polarization; at 6.36 µM; stronger effect = higher value
Hit rate of the full screen: of about 330,000 compounds, about 1,300 (0.39%) were called active. The full list was thinned out, with actives kept by preference.
Return type: number; implicit unit %.

Example entries begin here.
INSERT INTO results (compound, measured_metric, endpoint_result) VALUES
  ('Cc1[nH]nc(-c2ccc(OCc3cnn(-c4ccccc4)c3)cc2O)c1Oc1ccc(Cl)cc1', 'inhibition', -2.55),
  ('COc1ccc(NC(=O)c2ccccc2[N+](=O)[O-])cc1OC', 'inhibition', 0.28),
  ('O=C(NCCCN1CCN(c2ccc(F)cc2)CC1)Nc1ccc([N+](=O)[O-])cc1', 'inhibition', -8.31),
  ('Cc1ccc(NC(=O)C(C)c2cccc(C(=O)c3ccccc3)c2)cc1 (stereo not given)', 'inhibition', 1.32);

Shifting focus to the compound that follows.
Enter reported inhibition observed with Protein-arginine deiminase type-4 (Homo sapiens) for O=c1c(F)cn(C2CCCO2)c(=O)n1Cc1ccccc1Cl (stereo not given)
-4.61

---

Entries and their inhibition values follow.
Biological target: Protein-arginine deiminase type-4 (Homo sapiens) (UniProt Q9UM07)
Experiment: protein arginine deiminase 4 enzyme blockade – biochemical, fluorescence polarization, 1536-well format, primary screen (AID 485272);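 further: 0% = PAD4 with RCA probe and DMSO and 100% = probe without PAD4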
Conditions: recombinant PAD4, RCA probe fluorescence polarization; at 6.36 µM; stronger effect = higher value
Out of some 330,000 compounds screened, about 1,300 (0.39%) were called active. This is one part of a sample in which actives are shown more often than they occur.
Return type: number; implicit unit %.

Example entries begin here.
INSERT INTO measurements (compound, measured_metric, endpoint_result) VALUES
  ('O=C(COc1cccnc1[N+](=O)[O-])Nc1ccc(Cl)cc1F', 'inhibition', -3.69),
  ('O=c1oc2ccc(C#CC3(O)CCCCC3)cc2cc1-n1cc(-c2ccsc2)nn1', 'inhibition', 2.6),
  ('Cc1c2cnn(CC(=O)NCc3ccccn3)c(=O)c2c(C)n1Cc1ccc(Cl)cc1', 'inhibition', 1.37),
  ('COC(=O)c1cc(NC(=O)c2cc(C(C)(C)C)nn2Cc2cccc(C)c2)ccc1N1CCOCC1', 'inhibition', 2.9),
  ('CN(C(=O)CN1C(=O)S/C(=C\c2ccccc2F)C1=O)C1CCS(=O)(=O)C1 (configuration not stated)', 'inhibition', 3.56);

Query: inhibition; subject: `COc1ccc([C@H]2CC(=O)C=C(c3ccc(CO)cc3)C2)cc1`
1.09

---

Biological target: Protein-arginine deiminase type-4 (Homo sapiens) (UniProt Q9UM07)
Assay: protein arginine deiminase 4 enzyme blockade – biochemical, fluorescence polarization, 1536-well format, primary screen (AID 485272);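 further: 0% = PAD4 with RCA probe and DMSO and 100% = probe without PAD4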
Conditions: recombinant PAD4, RCA probe fluorescence polarization; at 6.36 µM
Screen size: about 330,000 compounds; about 1,300 (0.39%) were called active.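 Rule for the calls: active = percent inhibition above a cutoff equal to the mean of all tested compounds plus 3 SD (cut at about 15% in these data); inactive = the rest.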 Many of the other results were omitted from the sample, so actives are more common in it than they were.
// classify into active, inactive

INSERT INTO results (compound, label) VALUES
  ('CN(C)c1ccc(NC(=O)c2ccncc2)c2ccccc12', 'inactive');

Please state the recorded outcome for this compound: `Cc1ccc(S(=O)(=O)N(CC(=O)Nc2cccnc2)c2ccc(Br)cc2)cc1`
inactive

Then this compound: `Clc1ccc(C2=CSC3=Nc4cccc5cccc(c45)N23)cc1`
active

Then this compound: Cc1nc(N2CCCC2C(=O)O)c2oc3ccccc3c2n1 (stereo unspecified)
inactive

Then this compound: `Cc1nn(C(=O)c2ccoc2C)c(N)c1-c1ccccc1`
active

Then this compound: `Cc1ccn2cc(-c3nonc3C)cc2c1`
active

Then this compound: CC(NCCO)C(=O)C12CC3CC(CC(C3)C1)C2 (stereo unspecified)
inactive

Then this compound: `Oc1c(C=Nc2cccc3nsnc23)ccc2ccccc12`
active

Then this compound: CC1(OC(=O)CCc2ccccc2)C(=O)C=C2C=C(c3ccc(C#N)cc3)N(CCc3ccccn3)C=C2C1=O (stereo unspecified)
inactive

Then this compound: `COc1ccc(CNC(=O)COc2cccnc2[N+](=O)[O-])cc1`
inactive

Then this compound: `COc1ccc(-c2cn3ccc(C)cc3n2)cc1`
inactive
